- Test system: SF-268 CNS
- ASSAY_DETAILS: NCI tumour cell line growth inhibition, 48 h
Below is a list of entries, each paired with its recorded TGI value.

Below are worked cases with known answers.
O=[N+]([O-])c1ccc(-c2nc(/C=N/N3CCCCC3)cs2)o1
> 100 µM
CN1N=C(c2ccncc2)OC1c1ccc(Cl)cc1Cl (centres undefined)
> 100 µM
COc1ccc(C2C(Cl)C(=O)N2NC(=O)c2ccccc2O)cc1 (centres undefined)
> 100 µM

Turning now to a further compound:
INPUT: Requested field: TGI. Item: O=S1[C@H](c2ccccc2)c2c(-c3ccccc3)sc(-c3ccccc3)c2[C@@H]1c1ccccc1 (some centres undefined)
OUTPUT: > 100 µM
